The following compounds are listed with their measured %Inh values.
System: STK36
Conditions: concentration: 1 μM, replicates: in singlicate; n = 1;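 also: KINOMEscan kinase panel screen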

COMPOUND: Nc1cccc(-c2ccc3c(N)n[nH]c3c2)c1
%Inh (%): 0

COMPOUND: Cl.Cl.NC(CNC(=O)c1cc(Br)c(-c2ccnc3[nH]ccc23)s1)c1ccccc1 (stereo not drawn)
%Inh (%): 0

COMPOUND: O=C(Nc1n[nH]c2nc(-c3ccccc3O)ccc12)C1CC1
%Inh (%): 0

COMPOUND: CC(C)NCC(Cc1ccccc1)NC(=O)c1cc(Br)c(-c2ccnc3[nH]ccc23)s1.Cl.Cl (stereo not drawn)
%Inh (%): 0

COMPOUND: Nc1ncc(-c2cn[nH]c2)c2scc(-c3ccc4c(c3)CCN4C(=O)Cc3ccccc3)c12
%Inh (%): 0

COMPOUND: CN(C)CCOc1ccc(-c2cc(-c3ccc(Cl)c(O)c3)c(-c3ccncc3)[nH]2)cc1.Cl.Cl
%Inh (%): 63

COMPOUND: O=C(Nc1n[nH]c2nc(-c3cccc(O)c3)ccc12)C1CC1
%Inh (%): 14

COMPOUND: Cn1cc(-c2ccc3c(c2)CCN3C(=O)Cc2cc(F)cc(F)c2F)c2c(N)ncnc21
%Inh (%): 0

COMPOUND: COc1cccc2c(-c3ccncc3)c(-c3ccc(F)cc3)nn12
%Inh (%): 54

COMPOUND: Nc1ncnc2scc(-c3ccc(NC(=O)Cc4cc(F)ccc4F)cc3)c12.O=C(O)C(F)(F)F
%Inh (%): 0

COMPOUND: O=C1NC(=O)C(c2ccccc2Cl)=C1Nc1cccc(Cl)c1
%Inh (%): 0

COMPOUND: CCn1cnc2c(NCc3ccccc3)ncnc21
%Inh (%): 0

COMPOUND: CN(C)CCNS(=O)(=O)c1ccc(-c2ccnc3[nH]ccc23)cc1
%Inh (%): 0

COMPOUND: COc1cccc(-c2nc(-c3ccccc3)[nH]c2-c2ccncc2)c1
%Inh (%): 30

COMPOUND: Fc1cc(Cl)ccc1Nc1ccnc2cc(-c3ccc(CN4CCSCC4)o3)ccc12
%Inh (%): 0

COMPOUND: Cc1cccc(Nc2nc(N[C@H]3CCCC[C@H]3N)ncc2C(N)=O)c1.Cl
%Inh (%): 58

COMPOUND: CC(C)c1nc(-c2ccc(F)c(NS(=O)(=O)c3c(F)cccc3F)c2)c(-c2ccnc(Nc3ccc(N4CCOCC4)nc3)n2)s1
%Inh (%): 100

COMPOUND: CN(c1ccc(F)c(NC(=O)c2cccc(OC(C)(C)C#N)c2Cl)c1)c1ccc2nc(NC(=O)C3CC3)sc2n1
%Inh (%): 3

====

System: CHEK2
Details: concentration: 1 μM, replicates: in singlicate; n = 1
PROPERTY_MEASURED: %Inh (%)

MOL_SMILES: CC(C)c1nc(-c2ccc(F)c(NS(=O)(=O)c3c(F)cccc3F)c2)c(-c2ccnc(Nc3ccc(N4CCOCC4)nc3)n2)s1
PROPERTY_MEASURED: %Inh
ENDPOINT_VALUE: 49
--
MOL_SMILES: COc1cc(Nc2ccnc3cc(-c4ccncc4)ccc23)cc(OC)c1OC.Cl
PROPERTY_MEASURED: %Inh
ENDPOINT_VALUE: 0
--
MOL_SMILES: COc1ccc(C)c(Nc2ccnc(Nc3ccc(-c4cnc[nH]4)cc3)n2)c1.Cl
PROPERTY_MEASURED: %Inh
ENDPOINT_VALUE: 0
--
MOL_SMILES: COC(=O)Nc1nc2ccc(Oc3ccc(NC(=O)Nc4cc(C(F)(F)F)ccc4F)cc3)cc2[nH]1.Cl
PROPERTY_MEASURED: %Inh
ENDPOINT_VALUE: 16

====

Test system: CASK
Conditions: concentration: 1 μM, replicates: in singlicate; n = 1
Answer -1 if %Inh is under 10%, and 1 if it is 10% or more.

MOL_SMILES: Cc1cccc(Nc2nc(N[C@H]3CCCC[C@H]3N)ncc2C(N)=O)c1.Cl
CLASSIFICATION: 1

MOL_SMILES: COc1cccc2c(-c3ccncc3)c(-c3ccc(F)cc3)nn12
CLASSIFICATION: -1

MOL_SMILES: COc1cccc(C2=C(Nc3cccc(O)c3)C(=O)NC2=O)c1
CLASSIFICATION: 1

MOL_SMILES: COC(=O)Nc1nc2ccc(Oc3ccc(NC(=O)Nc4cc(C(F)(F)F)ccc4F)cc3)cc2[nH]1.Cl
CLASSIFICATION: 1

MOL_SMILES: COc1cc(Nc2ccnc3cc(-c4ccncc4)ccc23)cc(OC)c1OC.Cl
CLASSIFICATION: 1

MOL_SMILES: CN(c1ccc(NC(=O)N2CCN(CCCN3CCOCC3)CC2)cc1)c1ccnc(Nc2ccc(CS(C)(=O)=O)cc2)n1.Cl
CLASSIFICATION: -1

MOL_SMILES: CN1CCN(Cc2ccc(NC(=O)Nc3ccc(N(C)c4ccnc(Nc5ccc(CS(C)(=O)=O)cc5)n4)cc3)cc2)CC1.Cl
CLASSIFICATION: -1

MOL_SMILES: Cc1ccc(NC(=O)c2ccnc(N3CCCCC3)c2)cc1-c1ccc(C(=O)NCC2CC2)cc1
CLASSIFICATION: -1

====

Test system: SGK3
Settings: concentration: 1 μM, replicates: in singlicate; n = 1
The following molecules are listed with their measured %Inh values.

MOLECULE: CC(C)(C)c1ccc(C(=O)Nc2cn3cc(-n4ccnc4)ccc3n2)cc1
%Inh (%): 60

MOLECULE: CN(c1ccc(NC(=O)Nc2cccc(Cl)c2)cc1)c1ccnc(N)n1.Cl
%Inh (%): 0

MOLECULE: COC(=O)Nc1nc2cc(Oc3ccc(NC(=O)Nc4cccc(SC)c4)cc3)ccc2[nH]1.Cl
%Inh (%): 8

MOLECULE: Cc1ccc(NC(=O)c2ccnc(N3CCCCC3)c2)cc1-c1ccc(C(=O)NCC2CC2)cc1
%Inh (%): 0

MOLECULE: CS(=O)(=O)c1cccc(CNc2nc(Nc3ccc4c(c3)CCC(=O)N4)ncc2C(F)(F)F)c1
%Inh (%): 2

MOLECULE: Nc1ncc(-c2ccc3nccc(-c4ccncc4)c3c2)cc1S(=O)(=O)N1CCCCC1
%Inh (%): 17

MOLECULE: CN(C)CCNS(=O)(=O)c1ccc(-c2ccnc3[nH]ccc23)cc1
%Inh (%): 32

MOLECULE: CC(C)NCC(Cc1ccccc1)NC(=O)c1cc(Br)c(-c2ccnc3[nH]ccc23)s1.Cl.Cl (centres unmarked)
%Inh (%): 66

MOLECULE: COc1cccc(NC(=O)NCCNc2ccnc(Nc3ccc(F)cc3)n2)c1
%Inh (%): 2

MOLECULE: CN(c1ccc(NC(=O)N2CCN(CCCN3CCOCC3)CC2)cc1)c1ccnc(Nc2ccc(CS(C)(=O)=O)cc2)n1.Cl
%Inh (%): 0

MOLECULE: Cc1nn2c(=O)cc(N3CCO[C@H](C)C3)nc2n1Cc1cccc(Cl)c1Cl
%Inh (%): 0

MOLECULE: Cc1ccc(NC(=O)c2ccc(Cl)c(Cl)c2)cc1-c1ccc(C(=O)Nc2ccncc2)cc1
%Inh (%): 14

MOLECULE: Cc1ccc(O)cc1Nc1ccnc2ccc(C(C)(C)C)cc12
%Inh (%): 1

MOLECULE: CCOc1nccc(-c2c(-c3ccc(F)cc3)ncn2C2CCNCC2)n1
%Inh (%): 12

MOLECULE: Cl.Cl.NCC(NC(=O)c1cc(-c2cccnc2)c(-c2ccnc3[nH]ccc23)s1)c1ccccc1 (centres unmarked)
%Inh (%): 70

MOLECULE: O=C1NC(=O)C(c2ccccc2Cl)=C1Nc1cccc(Cl)c1
%Inh (%): 5

MOLECULE: COC(=O)Nc1nc2ccc(Oc3ccc(CC(=O)Nc4cc(C(F)(F)F)ccc4F)cc3)cc2[nH]1
%Inh (%): 0

====

Tested on: MEK4
Construct: gene MAP2K4
Details: concentration: 1 μM, replicates: in singlicate; n = 1
The following molecules are listed with their measured %Inh values.

MOLECULE: Cc1ccc(O)cc1Nc1ccnc2ccc(C(C)(C)C)cc12
%Inh [%]: 42
//
MOLECULE: COc1ccc(NC(=O)c2ccoc2)cc1-c1ccc(C(=O)NCC2CC2)cc1
%Inh [%]: 0
//
MOLECULE: CNc1nccc(-c2ccc3c(N)n[nH]c3c2)n1
%Inh [%]: 22
//
MOLECULE: CN1CCN(Cc2ccc(NC(=O)Nc3ccc(N(C)c4ccnc(Nc5ccc(CS(C)(=O)=O)cc5)n4)cc3)cc2)CC1.Cl
%Inh [%]: 86
//
MOLECULE: Nc1ncc(-c2ccc3nccc(-c4ccncc4)c3c2)cc1S(=O)(=O)N1CCCCC1
%Inh [%]: 33
//
MOLECULE: COC(=O)Nc1nc2cc(Oc3ccc(NC(=O)Nc4cccc(SC)c4)cc3)ccc2[nH]1.Cl
%Inh [%]: 12
//
MOLECULE: Cc1ccc(-c2ccc3occ(-c4ccc(S(C)=O)cc4)c3c2)nn1 (stereo not shown)
%Inh [%]: 0
//
MOLECULE: Cn1cc(-c2ccc3c(c2)CCN3C(=O)Cc2cc(F)cc(F)c2F)c2c(N)ncnc21
%Inh [%]: 37
//
MOLECULE: O=C(Nc1n[nH]c2nc(-c3ccccc3)ccc12)C1CC1
%Inh [%]: 0
//
MOLECULE: Cc1ccc(Nc2ccnc(Nc3ccc(C)c(F)c3)n2)cc1O.Cl
%Inh [%]: 28
//
MOLECULE: COc1ccc(C2=C(Nc3cccc(O)c3)C(=O)NC2=O)cc1
%Inh [%]: 0
//
MOLECULE: COC(=O)Nc1nc2ccc(Oc3ccc(NC(=O)Nc4cc(C(F)(F)F)ccc4F)cc3)cc2[nH]1.Cl
%Inh [%]: 15
//
MOLECULE: CCOc1nccc(-c2c(-c3ccc(F)cc3)ncn2C2CCNCC2)n1
%Inh [%]: 21
